# Test system: RAW264.7
# ASSAY_EXPLANATION: Anti-inflammatory activity in LPS-stimulated mouse RAW264.7 cells assessed as suppression of IL6 production pre-incubated for 1 hr before LPS stimulation for 24 hrs by ELISA method
# Format: functional, cell-based
MEASURED_QUANTITY: IC50 (nM)

Illustrative cases are given below, each with its answer.
[ask] Suppose we examine the compound `Cc1[nH]c2ccccc2c1CCN(C)S(=O)(=O)c1ccc(/C=C/C(=O)NO)cc1` ; what IC50 value has been reported?
[reply] 5.5

[ask] Suppose we examine the compound `O=C(/C=C/c1ccc(S(=O)(=O)NCCc2c[nH]c3ccccc23)cc1)NO` ; what IC50 value has been reported?
[reply] 0.014

[ask] Suppose we examine the compound `CCN(CCc1c(C)[nH]c2ccccc12)S(=O)(=O)c1ccc(/C=C/C(=O)NO)cc1` ; what IC50 value has been reported?
[reply] 5.9

P. Cc1[nH]c2ccccc2c1CCNS(=O)(=O)c1ccc(/C=C/C(=O)NO)cc1
Q. Cc1c(CCNS(=O)(=O)c2ccc(/C=C/C(=O)NO)cc2)c2ccccc2n1C
[ask] Looking at P and Q , which one comes out lower in IC50 terms? // caller expects the label of the chosen entry
[reply] Q
(Q: 14 nM, P: 20 nM)
